- procedureDetails: Pharmacokinetic parameters in the rat (i.v. and intragastric)
- Format: in vivo
- particulars: male, plasma, iv, read-out: CLplasma (converted)
- Method: For this, the test substances were applied in dissolved form both for intravenous, and for intragastric application, wherein compatible solubilizers such as PEG400 and/or ethanol were used in a compatible amount. The test substances were applied at a dose of 0.1-1 mg/kg. Administration was as a bolus injection in the male rat and as an infusion in the female dog (15 min). […]
propertyLabel: clearance (mL/min/kg)
Kindly provide the numeric value in mL/min/kg only, without the unit symbol.

Input line: Any idea what its clearance is? The compound is Cc1ccc(-c2ccc(Cl)c(F)c2)cc1C1=C(O)C2(CCC(F)(F)CC2)NC1=O
Output line: 0.167

----------
# reported pIC50; entries follow
- System: MCF7
- procedureDetails: Tumour cell proliferation, CellTiter-Glo, 96-hour incubation, MCF7
- Assay type: cell-based
- particulars: Homo sapiens, MCF7, 96 h; read-out: MCF7 IC50
Units for pIC50: none; it is -log10 of a concentration expressed in mol/L.

Input line: Any idea what its pIC50 is? The molecule is Cc1ccc(-c2ccc(Cl)c(F)c2)cc1C1=C(O)C2(CCCCC2)NC1=O [V.1-b, reference compound]
Output line: 7.66

Input line: Now the same for Cc1ccc(-c2ccc(F)c(F)c2)cc1C1=C(O)C2(CCC(F)(F)CC2)NC1=O
Output line: 7.35

Input line: Now the same for O=C1NC2(CCC(F)(F)CC2)C(O)=C1c1cc(-c2ccc(Cl)cc2)ccc1Cl
Output line: 7.07

Input line: Now the same for Cc1ccc(-c2ccc(Cl)c(F)c2)cc1C1=C(O)[C@]2(CC[C@H](C(F)(F)F)CC2)NC1=O [V.1-a, reference compound]
Output line: 7.52

Input line: Now the same for Cc1ccc(-c2ccc(F)cc2)cc1C1=C(O)C2(CCC(F)(F)CC2)NC1=O
Output line: 6.68

Input line: Now the same for Cc1ccc(-c2ccc(Cl)cc2)cc1C1=C(O)[C@]2(CC[C@H](C(F)(F)F)CC2)NC1=O [V.2-a, reference compound]
Output line: 7.46

----------
- procedureDetails: Pharmacokinetic parameters in the rat (i.v. and intragastric)
- Format: in vivo
- particulars: male, plasma, iv, read-out: t½ (converted)
propertyLabel: half-life (h)
Kindly provide the numeric value in h only, without the unit symbol.

Input line: Any idea what its half-life is? The molecule is Cc1ccc(-c2ccc(Cl)c(F)c2)cc1C1=C(O)C2(CCC(F)(F)CC2)NC1=O
Output line: 40

----------
- studyTarget: human ACC2 (Homo sapiens, UniProt O00763)
- Sequence (O00763 27-2458 limits assumed): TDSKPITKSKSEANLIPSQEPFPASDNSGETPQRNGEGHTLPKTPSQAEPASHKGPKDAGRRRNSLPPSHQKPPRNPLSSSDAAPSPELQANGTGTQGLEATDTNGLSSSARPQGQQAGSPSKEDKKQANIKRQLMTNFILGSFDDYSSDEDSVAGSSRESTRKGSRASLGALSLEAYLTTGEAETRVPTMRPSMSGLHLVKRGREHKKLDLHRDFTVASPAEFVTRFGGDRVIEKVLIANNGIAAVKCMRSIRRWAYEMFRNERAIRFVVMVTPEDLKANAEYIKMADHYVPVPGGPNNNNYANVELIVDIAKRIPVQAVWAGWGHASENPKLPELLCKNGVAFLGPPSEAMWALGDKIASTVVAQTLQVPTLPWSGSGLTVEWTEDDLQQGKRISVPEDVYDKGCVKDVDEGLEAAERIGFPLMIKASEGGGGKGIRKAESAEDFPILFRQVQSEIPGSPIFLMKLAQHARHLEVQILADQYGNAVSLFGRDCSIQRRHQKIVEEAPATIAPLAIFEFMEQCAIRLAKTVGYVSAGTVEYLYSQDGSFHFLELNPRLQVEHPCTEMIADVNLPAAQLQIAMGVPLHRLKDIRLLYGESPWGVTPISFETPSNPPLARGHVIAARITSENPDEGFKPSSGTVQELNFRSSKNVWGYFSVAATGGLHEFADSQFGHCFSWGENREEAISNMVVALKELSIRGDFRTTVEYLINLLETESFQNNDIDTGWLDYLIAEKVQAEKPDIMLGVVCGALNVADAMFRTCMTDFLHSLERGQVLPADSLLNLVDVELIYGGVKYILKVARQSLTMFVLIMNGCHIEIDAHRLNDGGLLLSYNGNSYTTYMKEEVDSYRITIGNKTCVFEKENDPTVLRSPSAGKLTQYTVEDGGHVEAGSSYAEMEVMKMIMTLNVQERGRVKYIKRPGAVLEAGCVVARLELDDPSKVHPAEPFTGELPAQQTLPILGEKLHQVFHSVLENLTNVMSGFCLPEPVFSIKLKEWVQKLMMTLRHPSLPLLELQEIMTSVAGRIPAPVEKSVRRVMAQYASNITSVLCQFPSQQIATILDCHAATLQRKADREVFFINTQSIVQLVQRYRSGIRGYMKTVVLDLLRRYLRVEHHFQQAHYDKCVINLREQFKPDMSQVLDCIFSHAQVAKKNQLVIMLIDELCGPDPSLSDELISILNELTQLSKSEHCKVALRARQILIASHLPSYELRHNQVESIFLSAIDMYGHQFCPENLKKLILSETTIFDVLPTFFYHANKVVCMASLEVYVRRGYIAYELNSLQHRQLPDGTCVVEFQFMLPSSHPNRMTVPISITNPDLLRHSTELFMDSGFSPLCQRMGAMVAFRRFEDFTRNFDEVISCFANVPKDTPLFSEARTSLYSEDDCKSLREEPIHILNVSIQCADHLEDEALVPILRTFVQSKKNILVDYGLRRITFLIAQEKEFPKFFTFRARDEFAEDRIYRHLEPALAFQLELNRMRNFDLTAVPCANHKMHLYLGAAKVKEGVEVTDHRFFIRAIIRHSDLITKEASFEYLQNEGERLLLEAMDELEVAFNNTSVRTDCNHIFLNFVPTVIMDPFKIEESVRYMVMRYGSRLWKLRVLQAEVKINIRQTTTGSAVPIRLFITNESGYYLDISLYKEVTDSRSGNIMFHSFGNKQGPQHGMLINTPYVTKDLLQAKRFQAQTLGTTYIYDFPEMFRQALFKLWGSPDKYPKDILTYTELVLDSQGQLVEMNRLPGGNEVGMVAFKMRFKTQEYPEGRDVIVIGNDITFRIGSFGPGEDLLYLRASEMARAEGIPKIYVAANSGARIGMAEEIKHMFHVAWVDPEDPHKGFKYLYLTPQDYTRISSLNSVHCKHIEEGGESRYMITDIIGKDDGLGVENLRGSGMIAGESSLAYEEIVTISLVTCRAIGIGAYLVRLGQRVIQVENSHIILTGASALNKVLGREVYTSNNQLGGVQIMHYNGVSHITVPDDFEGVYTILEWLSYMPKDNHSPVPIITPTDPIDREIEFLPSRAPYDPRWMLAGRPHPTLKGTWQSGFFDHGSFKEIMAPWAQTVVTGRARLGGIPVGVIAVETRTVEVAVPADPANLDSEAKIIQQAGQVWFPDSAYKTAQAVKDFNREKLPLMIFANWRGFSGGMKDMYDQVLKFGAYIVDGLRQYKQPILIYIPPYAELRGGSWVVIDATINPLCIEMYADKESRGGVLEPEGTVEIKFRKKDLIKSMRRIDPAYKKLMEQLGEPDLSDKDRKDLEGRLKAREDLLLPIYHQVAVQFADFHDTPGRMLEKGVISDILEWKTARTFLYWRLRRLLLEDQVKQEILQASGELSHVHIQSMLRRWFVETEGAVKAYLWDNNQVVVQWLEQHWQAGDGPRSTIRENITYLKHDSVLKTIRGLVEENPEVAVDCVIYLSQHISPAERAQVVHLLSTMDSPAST
propertyLabel: IC50

Cc1ccc(-c2ccc(Cl)c(F)c2)cc1C1=C(O)C2(CCCCC2)NC1=O [V.1-b, reference compound] ... 1.95 µM
Cc1ccc(-c2ccc(F)cc2)cc1C1=C(O)C2(CCC(F)(F)CC2)NC1=O ... > 20 µM

Below: the item to evaluate.
Input line: Any idea what its IC50 is? The compound is Cc1ccc(-c2ccc(Cl)cc2)c(C)c1C1=C(O)C2(CCC(F)(F)CC2)NC1=O
Output line: 2.7 µM

----------
- Test system: Spodoptera frugiperda
- procedureDetails: Spodoptera frugiperda test (SPODFR spray treatment)
- Assay type: in vivo
- particulars: 500 g/ha, after 7 days
# reported effect (kill of caterpillars); entries follow
Kindly provide the numeric value in % only, without the unit symbol.

These recorded examples may help you get a feel for the data.
Cc1ccc(-c2ccc(F)cc2)c(C)c1C1=C(O)C2(CCC(F)(F)CC2)NC1=O [Example I-1-a-2] ... 100
Cc1ccc(-c2ccc(Cl)cc2)cc1C1=C(O)C2(CCC(F)(F)CC2)OC1=O [Example I-2-a-3] ... 100
O=C1NC2(CCC(F)(F)CC2)C(O)=C1c1cc(-c2ccc(Cl)cc2)ccc1Cl [Example 1-4] ... 100
Cc1ccc(-c2ccc(Cl)cc2)cc1C1=C(O)C2(CCC(F)(F)CC2)NC1=O [Example 1-2] ... 100
Cc1ccc(-c2ccc(F)cc2)c(C)c1C1=C(O)C2(CC=C(F)CC2)NC1=O (stereo not shown) [Example I-1-a-12] ... 100

Input line: Any idea what its effect (kill of caterpillars) is? The molecule is Cc1ccc(-c2ccc(F)cc2)cc1C1=C(O)C2(CCC(F)(F)CC2)NC1=O [Example 1-3]
Output line: 100

Input line: Now the same for Cc1cc(C)c(C2=C(OC(=O)C(C)C)C3(CCC(F)(F)CC3)OC2=O)cc1C [Example I-2-b-1]
Output line: 83

----------
- Test system: human ACC1
- procedureDetails: Human ACC1 enzyme assay (ADP-Glo)
- Assay type: biochemical
# reported Selectivity ACC1 vs. ACC2 (mean of the individual measurements ± standard deviation); entries follow
Please give only the number in your answer, with no unit.

Cc1ccc(-c2ccc(Cl)cc2)c(C)c1C1=C(O)C2(CCC(F)(F)CC2)NC1=O ... 12.4
O=C1NC2(CCC(F)(F)CC2)C(O)=C1c1cc(-c2ccc(Cl)cc2)ccc1Cl ... 39.7
Cc1ccc(-c2ccc(F)c(F)c2)cc1C1=C(O)C2(CCC(F)(F)CC2)NC1=O ... 51.9
Cc1ccc(-c2ccc(Cl)cc2)cc1C1=C(O)C2(CCC(F)(F)CC2)NC1=O ... 13.4
Cc1ccc(-c2ccc(Cl)c(F)c2)cc1C1=C(O)C2(CCCCC2)NC1=O [V.1-b, reference compound] ... 46.9

Input line: Any idea what its Selectivity ACC1 vs. ACC2 (mean of the individual measurements ± standard deviation) is? The compound is Cc1ccc(-c2ccc(Cl)cc2)cc1C1=C(O)[C@]2(CC[C@H](C(F)(F)F)CC2)NC1=O [V.2-a, reference compound]
Output line: 9.8

Input line: Now the same for Cc1ccc(-c2ccc(Cl)cc2)cc1C1=C(O)C2(CCCCC2)NC1=O [V.2-b, reference compound]
Output line: 12.8

Input line: Now the same for Cc1ccc(-c2ccc(Cl)c(F)c2)cc1C1=C(O)[C@]2(CC[C@H](C(F)(F)F)CC2)NC1=O [V.1-a, reference compound]
Output line: 9.4

----------
# reported effect (kill of caterpillars); entries follow
- System: Spodoptera frugiperda
- procedureDetails: Spodoptera frugiperda test (SPODFR spray treatment)
- Type: in vivo
- particulars: 500 g/ha, after 7 days
The reply should read as a number followed by its unit.

These recorded examples may help you get a feel for the data.
Cc1ccc(-c2ccc(Cl)c(F)c2)cc1C1=C(O)C2(CCC(F)(F)CC2)NC1=O ... 100%
Cc1cc(C)c(C2=C(O)C3(CCC(F)(F)CC3)NC2=O)c(C)c1 ... 83%

Below: the item to evaluate.
Input line: Any idea what its effect (kill of caterpillars) is? The compound is Cc1ccc(-c2ccc(F)cc2)c(C)c1C1=C(O)C2(CCC(F)(F)CC2)OC1=O
Output line: 100%
